This section presents variants with their documented 8OG:A repair function score values.
B1: library; numbered along this chain (parent)
chain: MRKPRAAVGSGHRKQAASQEGRQKHAKNNSQAKPSACDGLARQPEEVVLQASVSSYHLFRDVAEVTAFRGSLLSWYDQEKRDLPWRRRAEDEMDLDRRAYAVWVSEVMLQQTQVATVINYYTGWMQKWPTLQDLASASLEEVNQLWAGLGYYSRGRRLQEGARKVVEELGGHMPRTAETLQQLLPGVGRYTAGAIASIAFGQATGVVDGNVARVLCRVRAIGADPSSTLVSQQLWGLAQQLVDPARPGDFNQAAMELGATVCTPQRPLCSQCPVESLCRARQRVEQEQLLASGSLSGSPDVEECAPNTGQCHLCLPPSEPWDQTLGVVNFPRKASRKPPREESSATCVLEQPGALGAQILLVQRPNSGLLAGLWEFPSVTWEPSEQLQRKALLQELQRWAGPLPATHLRHLGEVVHTFSHIKLTYQVYGLALEGQTPVTTVPPGARWLTQEEFHTAAVSTAMKKVFRVYQGQQPGTCMGSKRSQVSSPCSRKKPRMGQQVLDNFFRSHISTDAHSLNSAAQ

Variants of: B1
protocolNotes: 8OG:A repair function score (normalized; synonymous = 0, nonsense = -1) (normalized log-likelihood score); higher = more repair activity (WT-like);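 note: cells sorted at 72 h after reporter transfection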
conditionDescription: with 8OG:A DNA repair reporter (GFP) in HEK-293 MUTYH KO cells
Lab note: write the figure by itself, no unit.

Worked examples, 4 variants total:
In [3]: df
Out[3]:
   mutant  measvalue
0   P404Y     -0.119
1   E275S    0.00561
2   L277K      -0.17
3   P185A     -0.225

QUERY: Given C311P , state its recorded 8OG:A repair function score.
RESULT: -0.312

QUERY: Now the variant V142Y
RESULT: -0.971

QUERY: What about this variant? L325V
RESULT: -0.142

QUERY: What about G201F ?
RESULT: -0.266

QUERY: What do we get for V414H ?
RESULT: -0.326

QUERY: For L387E then?
RESULT: -0.0756

QUERY: For W85Y then?
RESULT: -0.864

QUERY: // next record T228I
RESULT: -0.152

QUERY: Next variant up: C314I
RESULT: -0.652
